Let's look at some compounds and their measured Dmax.
target: CK1α (Homo sapiens, UniProt P48729+Q96SW2); construct: expressed in transfected cells; host or cells: HEK293T (lentiviral transduction, puromycin selection, FACS sorting); experiment: Flow cytometry for measuring degradation, HEK293T GFP-POI reporter cells (CK1α); assay type: cell-based; conditions: CK1; Table 3; read-out: Dmax CK1a (%)
Sequence (P48729 whole entry): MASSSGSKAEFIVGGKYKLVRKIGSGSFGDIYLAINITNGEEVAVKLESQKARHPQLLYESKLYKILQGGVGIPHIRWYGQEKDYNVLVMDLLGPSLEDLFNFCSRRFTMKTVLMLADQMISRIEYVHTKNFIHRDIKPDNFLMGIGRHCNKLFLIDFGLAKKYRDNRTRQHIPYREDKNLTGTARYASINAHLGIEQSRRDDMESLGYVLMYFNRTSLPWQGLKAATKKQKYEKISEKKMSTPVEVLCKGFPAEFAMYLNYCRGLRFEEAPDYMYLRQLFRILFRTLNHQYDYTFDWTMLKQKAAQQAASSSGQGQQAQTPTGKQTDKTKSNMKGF
Sequence (Q96SW2 whole entry): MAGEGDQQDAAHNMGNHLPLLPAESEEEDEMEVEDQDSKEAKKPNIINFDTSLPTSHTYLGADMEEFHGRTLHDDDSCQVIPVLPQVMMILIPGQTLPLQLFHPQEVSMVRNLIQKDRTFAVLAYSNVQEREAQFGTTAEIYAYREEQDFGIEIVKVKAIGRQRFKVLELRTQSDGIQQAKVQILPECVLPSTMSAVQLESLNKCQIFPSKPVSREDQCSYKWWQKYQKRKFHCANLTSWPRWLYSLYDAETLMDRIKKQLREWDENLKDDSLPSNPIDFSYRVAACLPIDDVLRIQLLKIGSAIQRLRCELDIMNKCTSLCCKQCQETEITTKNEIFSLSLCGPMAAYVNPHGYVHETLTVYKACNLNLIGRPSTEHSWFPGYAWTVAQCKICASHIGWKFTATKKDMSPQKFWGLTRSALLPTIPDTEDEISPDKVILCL
Sequence (Q16531 whole entry partner): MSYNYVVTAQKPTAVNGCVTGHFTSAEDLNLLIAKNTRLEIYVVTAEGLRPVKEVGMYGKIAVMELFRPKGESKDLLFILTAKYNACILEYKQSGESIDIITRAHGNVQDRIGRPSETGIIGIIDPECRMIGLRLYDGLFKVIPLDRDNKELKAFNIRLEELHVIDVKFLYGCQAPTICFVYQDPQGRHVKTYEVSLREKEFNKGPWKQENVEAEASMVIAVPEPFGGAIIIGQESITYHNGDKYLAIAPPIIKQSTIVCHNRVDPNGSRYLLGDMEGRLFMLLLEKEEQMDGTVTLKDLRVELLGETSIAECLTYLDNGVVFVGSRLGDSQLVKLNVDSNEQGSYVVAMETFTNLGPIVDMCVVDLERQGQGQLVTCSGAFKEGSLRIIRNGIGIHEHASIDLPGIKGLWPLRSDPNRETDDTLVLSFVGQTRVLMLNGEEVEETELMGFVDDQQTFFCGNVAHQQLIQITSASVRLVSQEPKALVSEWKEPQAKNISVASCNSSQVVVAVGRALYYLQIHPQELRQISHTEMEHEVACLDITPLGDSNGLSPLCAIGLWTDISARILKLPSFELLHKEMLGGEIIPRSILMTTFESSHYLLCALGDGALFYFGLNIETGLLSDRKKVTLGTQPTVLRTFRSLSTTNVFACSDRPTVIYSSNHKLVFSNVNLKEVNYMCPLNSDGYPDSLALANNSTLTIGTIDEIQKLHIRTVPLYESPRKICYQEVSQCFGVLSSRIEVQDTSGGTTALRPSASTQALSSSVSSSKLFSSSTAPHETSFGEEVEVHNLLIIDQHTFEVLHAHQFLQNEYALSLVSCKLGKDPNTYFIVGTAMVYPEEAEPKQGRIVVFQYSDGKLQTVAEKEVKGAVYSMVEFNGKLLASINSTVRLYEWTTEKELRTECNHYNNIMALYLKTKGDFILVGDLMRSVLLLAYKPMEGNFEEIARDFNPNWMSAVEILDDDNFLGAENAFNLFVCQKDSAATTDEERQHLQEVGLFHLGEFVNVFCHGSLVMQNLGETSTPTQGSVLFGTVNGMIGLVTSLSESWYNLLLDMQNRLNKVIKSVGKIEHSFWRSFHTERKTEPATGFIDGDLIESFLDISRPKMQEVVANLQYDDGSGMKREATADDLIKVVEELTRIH
Record the value in %, omitting the unit from your answer.

N#Cc1ccc2cc(C(=O)Nc3ccc4c(c3)CN(C3CCC(=O)NC3=O)C4=O)ccc2c1 (stereo not shown); 81.2
C[C@H](NC(=O)c1ccccc1)C(=O)Nc1ccc2c(c1)CN(C1CCC(=O)NC1=O)C2=O (stereo partly shown); 54.1
COCOc1ccc2cc(C(=O)Nc3ccc4c(c3)CN(C3CCC(=O)NC3=O)C4=O)ccc2c1 (stereo not shown); 80.2

Pending compound:
Report Dmax for CS(=O)(=O)c1ccc2cc(C(=O)Nc3ccc4c(c3)CN(C3CCC(=O)NC3=O)C4=O)ccc2c1 (stereo not shown) please.
78.9
